Reported pIC50 values for the following compounds.
# assayOverview: Inhibition of human FTase
pIC50: −log10 of the molar value.

compound: NS(=O)(=O)Nc1cc([C@H]2[C@H]([N+](=O)[O-])[C@@H](c3ccccc3Br)CCN2Cc2cccnc2)ccc1O (racemic)
readoutQualifier: =
pIC50: 8.52
--
compound: CCc1ccccc1[C@H]1CCN(Cc2cccnc2)[C@@H](c2ccc(O)c(NS(N)(=O)=O)c2)[C@@H]1[N+](=O)[O-] (racemic)
readoutQualifier: =
pIC50: 8.35
--
compound: CCc1ccccc1[C@@H]1CCN(Cc2cccnc2)[C@@H](c2ccccc2)[C@H]1C(=O)O (racemic)
readoutQualifier: <
pIC50: 6.30
--
compound: O=[N+]([O-])[C@@H]1[C@@H](c2ccc3[nH]cnc3c2)N(Cc2cccnc2)CC[C@H]1c1ccccc1Br (racemic)
readoutQualifier: <
pIC50: 6.30
--
compound: CCc1ccccc1[C@H]1CCN(Cc2cccnc2)[C@@H](c2ccc(O)c(NC(N)=O)c2)[C@@H]1[N+](=O)[O-] (racemic)
readoutQualifier: =
pIC50: 8.21
--
compound: COc1ccc([C@@H]2[C@@H]([N+](=O)[O-])[C@H](c3ccccc3Br)CCN2Cc2cccnc2)cc1 (racemic)
readoutQualifier: <
pIC50: 6.30
--
compound: CCc1ccccc1[C@@H]1CCN(Cc2cccnc2)[C@@H](c2ccccc2)[C@H]1C(C)=O (racemic)
readoutQualifier: =
pIC50: 7.38

###

# assayOverview: Inhibition of human FTase
// reported log10 of IC50 for each item listed
assayEndpoint: log10 of IC50 (log10 of the value in nM)

compound: CCc1ccccc1[C@@H]1CCN(Cc2cccnc2)[C@H](c2ccc(O)c(NCc3ccccc3)c2)[C@H]1[N+](=O)[O-] (racemic)
assayEndpoint: log10 of IC50
dataValue: 2.08
//
compound: CS(=O)(=O)Nc1cc([C@H]2[C@H]([N+](=O)[O-])[C@@H](c3ccccc3Br)CCN2Cc2cccnc2)ccc1O (racemic)
assayEndpoint: log10 of IC50
dataValue: 0.63
//
compound: O=[N+]([O-])[C@@H]1[C@@H](c2ccsc2)N(Cc2cccnc2)CC[C@H]1c1ccccc1Br (racemic)
assayEndpoint: log10 of IC50
dataValue: 1.56
//
compound: Nc1cc([C@@H]2[C@@H]([N+](=O)[O-])[C@H](c3ccccc3Br)CCN2Cc2cccnc2)ccc1O (racemic)
assayEndpoint: log10 of IC50
dataValue: 1.11
//
compound: COc1cc([C@@H]2[C@@H]([N+](=O)[O-])[C@H](c3ccccc3Br)CCN2Cc2cccnc2)ccc1O (racemic)
assayEndpoint: log10 of IC50
dataValue: 2.26
//
compound: CC(C)Nc1cc([C@@H]2[C@@H]([N+](=O)[O-])[C@H](c3ccccc3Br)CCN2Cc2cccnc2)ccc1O (racemic)
assayEndpoint: log10 of IC50
dataValue: 1.99
//
compound: NC(=O)Nc1cc([C@H]2[C@H]([N+](=O)[O-])[C@@H](c3ccccc3Br)CCN2Cc2cccnc2)ccc1O (racemic)
assayEndpoint: log10 of IC50
dataValue: 1.18
//
compound: Cn1cncc1CN1CC[C@@H](c2ccccc2Br)[C@H]([N+](=O)[O-])[C@H]1c1ccccc1 (racemic)
assayEndpoint: log10 of IC50
dataValue: 1.23
